# System: ML-2
# Set-up: species or system AML cell lines (8); Primary HTS, single concentration about 10 uM, Cell Titer Glo viability; log10 luminescence, per cent inhibition relative to cycloheximide control
# details: 72 h, relative to cycloheximide control, log10 luminescence; inhibitor
In this section, each of the compounds is paired with its reported ML-2 %inh.
Could you give me the number in %? Just the number is fine.

Previously resolved entries follow.
compound: CC1=C(/C=C/C(C)=C/C=C/C(C)=C/C(=O)O)C(C)(C)CCC1O (stereo not shown) [SJ000561070-1, 4-HYDROXYRETINOIC ACID]
unit-string: %
ML-2 %inh: 5.11
--
compound: Cc1ccccc1-n1c(Cn2cnc3c(N)ncnc32)nc2cccc(C)c2c1=O [SJ000571308-2, IC-87114 | PIK 293]
unit-string: %
ML-2 %inh: 1.318
--
compound: CCS(=O)(=O)c1ccc(OC)c(Nc2ncc(-c3cccc(OC)c3)o2)c1 [SJ000573358-1, U15747/93/1]
unit-string: %
ML-2 %inh: 1.703

Consider the additional compound presented here.
Need ML-2 %inh, item Cn1c(=O)c(Oc2ccc(F)cc2F)cc2cnc(NC3CCS(=O)(=O)CC3)nc21 [SJ000581062-1]
1.685

====

# System: MOLM-13
# Set-up: species or system AML cell lines (8); Primary HTS, single concentration about 10 uM, Cell Titer Glo viability; log10 luminescence, per cent inhibition relative to cycloheximide control
# details: 72 h, relative to cycloheximide control, log10 luminescence; inhibitor
In this section, each of the compounds is paired with its reported MOLM-13 %inh.
Could you give me the number in %? Just the number is fine.

Previously resolved entries follow.
mol-smiles: CN(C)CCCn1c(-c2nonc2N)nc2cnccc21
recorded-result: -2.29
--
mol-smiles: CCCn1cc(C2=C(c3cn(C)c4ccccc34)C(=O)NC2=O)c2ccccc21
recorded-result: 64.41
--
mol-smiles: CSc1c(C2=C(c3cn(C)c4ccccc34)C(=O)NC2=O)c2ccccc2n1C
recorded-result: 28.45

Consider the additional compound presented here.
Need MOLM-13 %inh, item `COc1cc(C=NNc2ncnc3c2cnn3-c2ccccc2)ccc1O`
3.51

====

# Tested on: MOLM-13
# Set-up: species or system AML cell lines (8); Primary HTS, single concentration about 10 uM, Cell Titer Glo viability; log10 luminescence, per cent inhibition relative to cycloheximide control
# details: 72 h, relative to cycloheximide control, log10 luminescence; inhibitor
In this section, each of the compounds is paired with its reported MOLM-13 %inh.
Could you give me the number in %? Just the number is fine.

Previously resolved entries follow.
compound: CCS(=O)(=O)c1ccc(OC)c(Nc2ncc(-c3cccc(C(C)=O)c3)o2)c1 [SJ000573024-1, U16419/42/1]
assayed-system: MOLM-13
MOLM-13 %inh, %: 78.46
--
compound: Cn1cc(C2=C(c3cn(C)c4cc(Cl)ccc34)C(=O)NC2=O)c2ccccc21 [SJ000581078-1]
assayed-system: MOLM-13
MOLM-13 %inh, %: 85.69
--
compound: O=C1NC(=Nc2ccccc2)S/C1=C\c1ccc2ncccc2c1 [SJ000580960-1]
assayed-system: MOLM-13
MOLM-13 %inh, %: 1.819
--
compound: CN[C@H](C#Cc1c(F)ccc2c1/C(=C/c1[nH]ccc1OC)C(=O)N2)CO [SJ000581143-1]
assayed-system: MOLM-13
MOLM-13 %inh, %: 108.7
--
compound: Fc1ccc(-c2c(-c3ccncc3)[nH]c3cccnc23)cc1 [SJ000581088-1]
assayed-system: MOLM-13
MOLM-13 %inh, %: -2.723

Need MOLM-13 %inh, item NC1=NC(=O)/C(=C/c2ccc3ncccc3c2)S1 [SJ000581167-1]
12.5

Note, next up: Nc1c(C(=O)c2cccc(CCCN3CCOCC3)c2)cnn1-c1ccc(F)cc1 [SJ000581033-1]
-0.1425

Note, next up: NS(=O)(=O)c1cccc(-c2cc3ccncc3cc2OCc2ccccc2)c1 [SJ000573034-1, R14712/3/10]
2.316

This collection of values is drawn from paper PMC6522510.
